Just for reference, ChEMBL document CHEMBL3885881 is where these values come from.

// values below are reported CARBON DIOXIDE
- Organism: Rattus norvegicus
- Protocol description: DrugMatrix - Regimen: Daily Repeat
- Type: toxicity, organism-based, Sprague-Dawley
- Set-up: regimen Daily Repeat, gender Male, age 6-8 weeks
- Test parameters: in vivo, po, 1500 mg/kg, 120 h, tissue Plasma, route oral GAVAGE, dose level High, time 5 day, vehicle .5 % CMC

- Compound: "Cc1ccc(S(=O)(=O)NC(=O)NN2CC3CCCC3C2)cc1 (stereo not given) [GLICLAZIDE]"
  CARBON DIOXIDE, mmol/L: 23.33
- Compound: "Cc1cc(=O)n(-c2ccccc2)n1C [ANTIPYRINE]"
  CARBON DIOXIDE, mmol/L: 36
- Compound: "C[C@]1(Cn2ccnn2)[C@H](C(=O)O)N2C(=O)C[C@H]2S1(=O)=O"
  CARBON DIOXIDE, mmol/L: 27
- Compound: "CO[C@H]1/C=C/O[C@@]2(C)Oc3c(C)c(O)c4c(c3C2=O)C2=NC3(CCN(CC(C)C)CC3)NC2=C(NC(=O)/C(C)=C\\C=C\\[C@H](C)[C@H](O)[C@@H](C)[C@@H](O)[C@@H](C)[C@H](OC(C)=O)[C@@H]1C)C4=O"
  CARBON DIOXIDE, mmol/L: 24.5
- Compound: "CNC(=C[N+](=O)[O-])NCCSCc1ccc(CN(C)C)o1"
  CARBON DIOXIDE, mmol/L: 21.33

* * *

- Organism: Rattus norvegicus
- Protocol description: DrugMatrix - Regimen: Daily Repeat
- Format: toxicity, organism-based, Sprague-Dawley
- Set-up: regimen Daily Repeat, gender Male, age 6-8 weeks
- Test parameters: in vivo, po, 10 mg/kg, 120 h, tissue Plasma, route oral GAVAGE, dose level Low, time 5 day, […]
The reader will find reported GLUCOSE values listed item by item below.
Quantity: GLUCOSE (mg/dL)

- Compound: "CCOC(=O)C1=C(C)NC(C)=C(C(=O)OC)C1c1cccc([N+](=O)[O-])c1 (stereo not drawn)"
  Quantity: "GLUCOSE"
  Unit descriptor: "mg/dL"
  Measured number: 143
- Compound: "COc1ccc2cc([C@H](C)C(=O)O)ccc2c1"
  Quantity: "GLUCOSE"
  Unit descriptor: "mg/dL"
  Measured number: 252
- Compound: "CC(C)CC(N(C)C)C1(c2ccc(Cl)cc2)CCC1 (stereo not drawn)"
  Quantity: "GLUCOSE"
  Unit descriptor: "mg/dL"
  Measured number: 148.67

* * *

- Species: Rattus norvegicus
- Protocol description: DrugMatrix - Regimen: Daily Repeat
- Format: toxicity, organism-based, Sprague-Dawley
- Parameters: regimen Daily Repeat, gender Male, age 6-8 weeks
- Test parameters: in vivo, po, 1500 mg/kg, 120 h, tissue Plasma, route oral GAVAGE, dose level High, time 5 day, vehicle .5 % CMC

- Molecule: "NC(=O)c1cnccn1 [PYRAZINAMIDE]"
  SODIUM, MEQ/L: 147.8
- Molecule: "C[C@]1(Cn2ccnn2)[C@H](C(=O)O)N2C(=O)C[C@H]2S1(=O)=O"
  SODIUM, MEQ/L: 148.17
- Molecule: "Cc1cc(=O)n(-c2ccccc2)n1C [ANTIPYRINE]"
  SODIUM, MEQ/L: 141.33

* * *

- Species: Rattus norvegicus
- Protocol description: DrugMatrix - Regimen: Daily Repeat
- Format: toxicity, organism-based, Sprague-Dawley
- Design: regimen Daily Repeat, gender Male, age 6-8 weeks
- Test parameters: in vivo, po, 1500 mg/kg, 72 h, tissue Blood, route oral GAVAGE, dose level High, time 3 day, vehicle .5 % CMC
# LYMPHOCYTE values compiled below
Quantity: LYMPHOCYTE (%)

- Compound: "CNC(=C[N+](=O)[O-])NCCSCc1ccc(CN(C)C)o1"
  Unit descriptor: "%"
  Measured number: 91.67
- Compound: "C[C@]1(Cn2ccnn2)[C@H](C(=O)O)N2C(=O)C[C@H]2S1(=O)=O"
  Unit descriptor: "%"
  Measured number: 91.67
- Compound: "Cc1cc(=O)n(-c2ccccc2)n1C [ANTIPYRINE]"
  Unit descriptor: "%"
  Measured number: 90.67
